- experimental system: Carboxypeptidase B2 (Rattus norvegicus)
- Sequence (whole entry): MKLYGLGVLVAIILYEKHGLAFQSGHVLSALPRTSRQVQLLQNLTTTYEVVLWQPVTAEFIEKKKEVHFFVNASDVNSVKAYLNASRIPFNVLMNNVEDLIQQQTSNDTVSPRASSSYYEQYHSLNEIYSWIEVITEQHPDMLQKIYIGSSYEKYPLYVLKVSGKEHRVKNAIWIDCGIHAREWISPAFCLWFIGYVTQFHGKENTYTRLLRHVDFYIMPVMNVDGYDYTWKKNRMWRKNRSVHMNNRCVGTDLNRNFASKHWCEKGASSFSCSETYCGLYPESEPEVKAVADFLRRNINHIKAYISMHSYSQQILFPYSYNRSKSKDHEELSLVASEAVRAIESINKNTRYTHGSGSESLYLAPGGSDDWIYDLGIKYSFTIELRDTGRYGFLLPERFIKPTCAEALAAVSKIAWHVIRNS
- assay name: Inhibition of TAFI in Sprague-Dawley rat blood TAFI at 0.8 uM incubated for 2 mins by thromboelastometry analysis relative to control
Quick rule: inhibition of at least 70% means rule met, below that means rule not met.

Record excerpt, results attached:
- Cc1ncc(-c2ccccc2CN2CCP(=O)(O)[C@](CCCCN)(C(=O)O)C2)n1C: rule not met
- NCCCC[C@@]1(C(=O)O)CN(Cc2ccc(F)cc2-c2cncnc2)CCP1(=O)O: rule not met
- NCCCC[C@@]1(C(=O)O)CN(Cc2ccc(F)cc2-c2ccc(Cl)cc2)CCP1(=O)O: rule not met

Input: Please tell me: is the molecule COc1ccc(-c2ccccc2CN2CCP(=O)(O)[C@](CCCCN)(C(=O)O)C2)cn1 at or over 70% in terms of inhibition?
Output: rule met

Input: NCCCC[C@@]1(C(=O)O)CN(Cc2ccccc2-c2cc[nH]c(=O)c2)CCP1(=O)O , same question.
Output: rule not met
